Data origin: patent US20160264649A1

What IC50 (neutralization) was measured for each of the following?
# target.or.system: HIV-1 Env of isolate MGRM-D-020 (subtype D) (HIV-1)
# experiment.summary: cell-based or functional assay
Write the value in µg/mL as a bare number.

Query block: State, in one line, measured IC50 (neutralization) of PGT-125 (antibody, V domains shown) VH: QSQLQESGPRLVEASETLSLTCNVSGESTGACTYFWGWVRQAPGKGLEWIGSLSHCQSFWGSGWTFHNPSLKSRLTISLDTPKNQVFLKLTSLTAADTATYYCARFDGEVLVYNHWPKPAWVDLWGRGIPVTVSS VL: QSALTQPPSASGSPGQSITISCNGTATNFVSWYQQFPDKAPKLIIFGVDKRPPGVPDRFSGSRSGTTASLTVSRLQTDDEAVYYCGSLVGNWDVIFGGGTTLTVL
Result block: 0.015

Query block: Look up and report measured IC50 (neutralization) for this entry: PGT-127 (antibody, V domains shown) VH: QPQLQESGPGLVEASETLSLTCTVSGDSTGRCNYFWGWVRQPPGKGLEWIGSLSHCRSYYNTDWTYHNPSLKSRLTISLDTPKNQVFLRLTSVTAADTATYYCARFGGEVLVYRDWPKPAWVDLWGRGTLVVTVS VL: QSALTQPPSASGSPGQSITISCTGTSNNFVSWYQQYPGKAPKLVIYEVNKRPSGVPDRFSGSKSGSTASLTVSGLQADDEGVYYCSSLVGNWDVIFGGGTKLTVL
Result block: 0.015
